For reference, the following pKi results for the protein given by its sequence were taken from various sources.
Target chain: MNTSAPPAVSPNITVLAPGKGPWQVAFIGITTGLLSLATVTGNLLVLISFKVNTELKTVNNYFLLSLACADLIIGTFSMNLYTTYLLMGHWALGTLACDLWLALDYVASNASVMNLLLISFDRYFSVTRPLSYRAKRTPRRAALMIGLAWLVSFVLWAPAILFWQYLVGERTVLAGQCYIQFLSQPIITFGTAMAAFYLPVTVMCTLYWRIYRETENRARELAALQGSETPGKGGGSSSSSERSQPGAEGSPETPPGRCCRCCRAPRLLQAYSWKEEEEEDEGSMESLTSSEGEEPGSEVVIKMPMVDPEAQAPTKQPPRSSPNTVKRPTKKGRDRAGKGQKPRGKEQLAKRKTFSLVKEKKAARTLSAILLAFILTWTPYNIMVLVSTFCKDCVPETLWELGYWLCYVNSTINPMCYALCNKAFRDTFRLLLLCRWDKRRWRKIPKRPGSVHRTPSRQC
pKi: −log10 of the molar value.

compound	pKi
NC(CSSCC(N)C(=O)O)C(=O)O (stereo not given)	< 5.00
N[C@@H](CCS)C(=O)O (racemic)	< 5.00
NC(CS(=O)O)C(=O)O (stereo not given)	< 5.00
CSCC[C@@H](N)C(=O)O	< 5.00
CC(C)=CCC[C@]1(C)[C@@H](CC=C(C)C)C[C@]2(CC=C(C)C)C(=O)C(CC=C(C)C)C(=O)[C@]1(C(=O)C(C)C)C2=O (stereo not given in full)	< 5.00
CC(C)C(=O)N(c1ccccc1)C1CC(C)N(C(=O)c2ccccc2)c2ccccc21 (stereo not given)	< 6.00
N[C@@H](CS)C(=O)O	< 5.00
CN(C)CCON=C(C=Cc1ccc(O)cc1)c1ccccc1F	6.14
O=c1cc(O)cc2oc(-c3ccc(O)c(-c4c(O)cc(O)c5c(=O)cc(-c6ccc(O)cc6)oc45)c3)cc(O)c1-2	< 5.00
CCC(=O)N1c2ccccc2C(N(C(C)=O)c2ccccc2)CC1C (stereo not given)	< 6.00
